System: HBV viral production in AD38 cells
experiment_description: Viral load production in AD38 cells by quantitative PCR of the HBV core sequence in supernatant
Format: cell-based
cond: Hepatitis B virus, 144 h; 10 μM compound, 6 days at 37° C., viral load in supernatant compared against DMSO control wells; read-out: AD38 Viral Load (CpAM/DMSO %) at 10 μM
Please provide measured activity at 10 µM for the entries that follow.
Lab book: enter the figure in %, no units written.

For the molecule COc1ccc2c(c1)C(=O)Nc1cc(C(=O)NCCC3CCCCC3)ccc1S2 , what activity at 10 µM is on record?
24

For the molecule O=C(NCC1CCOCC1)c1ccc2c(c1)NC(=O)c1ccccc1S2 , what activity at 10 µM is on record?
14

For the molecule O=C(Nc1ccc2ncsc2c1)c1ccc2c(c1)NC(=O)c1cc(F)ccc1S2 , what activity at 10 µM is on record?
26

For the molecule O=C(Nc1nccs1)c1ccc2c(c1)NC(=O)c1ccccc1S2(=O)=O , what activity at 10 µM is on record?
45

For the molecule O=C(NCc1cnc(-c2ccccc2)nc1)c1ccc2c(c1)NC(=O)c1ccccc1S2(=O)=O , what activity at 10 µM is on record?
1

For the molecule O=C(NC[C@@H](C(=O)O)c1ccccc1)c1ccc2c(c1)NC(=O)c1ccccc1S2 , what activity at 10 µM is on record?
63

For the molecule O=C(Nc1ccccc1O)c1ccc2c(c1)NC(=O)c1ccccc1S2 , what activity at 10 µM is on record?
45

For the molecule O=C(Nc1nccs1)c1ccc2c(c1)NC(=O)c1cc(F)ccc1S2 , what activity at 10 µM is on record?
62

For the molecule CC(=O)Nc1ccccc1CNC(=O)c1ccc2c(c1)NC(=O)c1ccccc1S2 , what activity at 10 µM is on record?
15

For the molecule O=C1Nc2c(cc(F)c(C(=O)NCc3cccnc3)c2F)Sc2ccccc21 , what activity at 10 µM is on record?
65

For the molecule O=C(NCCc1cnco1)c1ccc2c(c1)NC(=O)c1c(F)cccc1S2 , what activity at 10 µM is on record?
59

For the molecule O=C(NCc1cncnc1)c1ccc2c(c1)NC(=O)c1ccccc1S2(=O)=O , what activity at 10 µM is on record?
3

For the molecule O=C(Nc1cccc(-c2ccccc2)c1)c1ccc2c(c1)NC(=O)c1ccccc1[S+]2[O-] (centres unmarked) , what activity at 10 µM is on record?
11

For the molecule O=C(NCCC1CCCCC1)c1ccc2c(c1)Sc1ccccc1C(=O)N2 , what activity at 10 µM is on record?
19

For the molecule O=C(NCC1CCCC1)c1ccc2c(c1)NC(=O)c1ccccc1S2 , what activity at 10 µM is on record?
4

For the molecule O=C(NCc1cnco1)c1ccc2c(c1)NC(=O)c1ccccc1S2(=O)=O , what activity at 10 µM is on record?
15

For the molecule CNc1ccccc1CNC(=O)c1ccc2c(c1)NC(=O)c1ccccc1S2 , what activity at 10 µM is on record?
33

For the molecule O=C(NCCC1CCCCC1)c1ccc2c(c1)NC(=O)c1cnccc1S2 , what activity at 10 µM is on record?
26

For the molecule O=C(NCCc1ccc(-n2ccnn2)cc1)c1ccc2c(c1)NC(=O)c1ccccc1S2 , what activity at 10 µM is on record?
1

For the molecule O=C(Nc1ccc2ncoc2c1)c1ccc2c(c1)NC(=O)c1cc(F)ccc1S2 , what activity at 10 µM is on record?
43

====

Test system: HBV viral production in AD38 cells
experiment_description: Viral load production in AD38 cells by quantitative PCR of the HBV core sequence in supernatant
Type: cell-based
cond: Hepatitis B virus, 144 h; 10 μM compound, 6 days at 37° C., viral load in supernatant compared against DMSO control wells; read-out: AD38 Viral Load (CpAM/DMSO %) at 10 μM
Cut-off 30% on activity at 10 µM: below means fulfilled, at or above means not fulfilled.

For this compound, is activity at 10 µM lower than 30%? O=C(NCCC1CCCCC1)c1ccc2c(c1)NC(=O)c1ccc(F)cc1S2
fulfilled

For this compound, is activity at 10 µM lower than 30%? O=C(NCCc1cnco1)c1cc2c(cc1F)Sc1ccccc1C(=O)N2
not fulfilled

For this compound, is activity at 10 µM lower than 30%? O=C(NCCc1cccnc1)c1cc2c(cc1F)Sc1ccccc1C(=O)N2
not fulfilled

For this compound, is activity at 10 µM lower than 30%? CN1c2ccc(C(=O)NCCc3cncnc3)cc2NC(=O)c2ccccc21
fulfilled

For this compound, is activity at 10 µM lower than 30%? O=C(NCCc1ccc(Br)cc1)c1ccc2c(c1)NC(=O)c1ccccc1S2
fulfilled

For this compound, is activity at 10 µM lower than 30%? O=C(NCCOc1ccccc1)c1ccc2c(c1)NC(=O)c1ccccc1S2
fulfilled

For this compound, is activity at 10 µM lower than 30%? O=C(Nc1cncc(F)c1)c1ccc2c(c1)NC(=O)c1cc(F)ccc1S2
not fulfilled

For this compound, is activity at 10 µM lower than 30%? O=C(NCc1cccnc1)c1ccc2c(c1)NC(=O)c1ccc(F)cc1S2
fulfilled

For this compound, is activity at 10 µM lower than 30%? O=C(NCc1cncs1)c1ccc2c(c1)NC(=O)c1ccccc1N2Cc1ccccc1
not fulfilled

====

System: AD38 cells
experiment_description: Viability of AD38 cells (Promega CellTiter-Glo) at the end of compound treatment
Type: cell-based
cond: 10 μM compound, 6 days, luminescence normalized against DMSO control wells (controls being 100%)
measure_name: AD38 Viability Normalized Result (CPAM/DMSO %) at 10 μM
Lab book: enter the figure in %, no units written.

For the compound O=C(Nc1ccc(F)cc1)c1ccc2c(c1)NC(=O)c1cc(F)ccc1S2 , what AD38 Viability Normalized Result (CPAM/DMSO %) at 10 μM is on record?
89

For the compound O=C(NCc1cccc(OC(F)(F)F)c1)c1ccc2c(c1)NC(=O)c1ccccc1S2(=O)=O , what AD38 Viability Normalized Result (CPAM/DMSO %) at 10 μM is on record?
136

For the compound Cc1c(C(=O)Nc2ccncc2)ccc2c1NC(=O)c1ccccc1S2 , what AD38 Viability Normalized Result (CPAM/DMSO %) at 10 μM is on record?
82

For the compound O=C(NCc1cccc(F)c1)c1ccc2c(c1)NC(=O)c1ccccc1S2(=O)=O , what AD38 Viability Normalized Result (CPAM/DMSO %) at 10 μM is on record?
120

For the compound O=C(NCCc1ccc(-c2ccccc2)cc1)c1ccc2c(c1)NC(=O)c1ccccc1[S+]2[O-] (centres unmarked) , what AD38 Viability Normalized Result (CPAM/DMSO %) at 10 μM is on record?
86

For the compound CCN1c2ccc(C(=O)NCc3cnco3)cc2NC(=O)c2ccccc21 , what AD38 Viability Normalized Result (CPAM/DMSO %) at 10 μM is on record?
119

For the compound O=C(NCc1cncs1)c1ccc2c(c1)NC(=O)c1c(F)cccc1S2 , what AD38 Viability Normalized Result (CPAM/DMSO %) at 10 μM is on record?
117

For the compound O=C(NCCc1cnc(-c2ccccc2)nc1)c1ccc2c(c1)NC(=O)c1cc(F)ccc1S2 , what AD38 Viability Normalized Result (CPAM/DMSO %) at 10 μM is on record?
91

====

Test system: HBV viral production in AD38 cells
experiment_description: Viral load production in AD38 cells by quantitative PCR of the HBV core sequence in supernatant
Type: cell-based
cond: Hepatitis B virus, 144 h; 10 μM compound, 6 days at 37° C., viral load in supernatant compared against DMSO control wells; read-out: AD38 Viral Load (CpAM/DMSO %) at 10 μM
measure_name: activity at 10 µM

For the molecule O=C(NCCC1CCCCC1)c1ccc2c(c1)NC(=O)c1ccc(Cl)cc1S2 [Compound 1250] , what activity at 10 µM is on record?
14%

For the molecule O=C(NCc1cncs1)c1ccc2c(c1)NC(=O)c1cccc(F)c1S2 [Compound 1407] , what activity at 10 µM is on record?
3%

For the molecule O=C(NCc1cnco1)c1cc2c(cc1F)Sc1ccccc1C(=O)N2 [Compound 1430] , what activity at 10 µM is on record?
56%

For the molecule O=C(NCCc1ccc(-c2ccccc2)cc1)c1ccc2c(c1)NC(=O)c1ccccc1N2Cc1ccccc1 [Compound 1483] , what activity at 10 µM is on record?
65%

For the molecule Cc1nnc(CCNC(=O)c2ccc3c(c2)NC(=O)c2ccccc2S3)o1 [Compound 1603] , what activity at 10 µM is on record?
6%

For the molecule Cc1c(C(=O)NCc2cccnc2)ccc2c1NC(=O)c1ccccc1S2 [Compound 1515] , what activity at 10 µM is on record?
2%

For the molecule O=C(NCc1cncnc1)c1ccc2c(c1)NC(=O)c1cc(F)ccc1S2 [Compound 1308] , what activity at 10 µM is on record?
1%

For the molecule CCN1c2ccc(C(=O)NCCc3cncs3)cc2NC(=O)c2ccccc21 [Compound 1566] , what activity at 10 µM is on record?
31%

For the molecule CCCCCCCCNC(=O)c1ccc2c(c1)NC(=O)c1ccccc1S2 [Compound 1152] , what activity at 10 µM is on record?
1%
